# METHOD SUMMARY: Stability assessed as half life at pH 7.4
# Assay type: physicochemical
# CONDITION INFO: buffer
READOUT NAME: half-life (h)
Your answer is read as h, so omit the unit and give the number.

Can you look up the measured half-life of CC(Cc1ccc(O)c(O)c1)C(C)Cc1ccc(O)c(O)c1 (stereo unspecified) [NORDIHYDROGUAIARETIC ACID] for me?
3
